# Tested on: M14
# PROTOCOL_DESCRIPTION: NCI tumour cell line growth inhibition, 48 h
Calls of active or inactive are those of the source. Cut-off read from the data, not from the text of the source: active = GI50 up to about 1.1 µM and inactive = higher.
QUANTITY_MEASURED: GI50

O=[N+]([O-])c1ccc2c(c1)/C(=N/N=C1c3ccccc3Cc3ccccc31)c1cc([N+](=O)[O-])cc([N+](=O)[O-])c1-2 = 2.49 µM (inactive)

Items follow; give GI50 for each.
1. CCCCN(CCCC)CC(C(=O)Nc1ccc([N+](=O)[O-])cc1[N+](=O)[O-])/C(C)=N\NC(=O)c1ccncc1 (centres undefined)
2. O=C1NC2(CCCCC2)C(=O)N1CCN(CCCl)CCCl [SPIROMUSTINE]

1. > 100 µM (inactive)
2. > 25 µM (inactive)

Need GI50, item CCOP(C)(=O)C(Nc1ccc(F)cc1)c1ccc(F)cc1 (centres undefined)
> 100 µM (inactive)

====

# System: HCT-15
QUANTITY_MEASURED: GI50 (µM)
Answers are plain numbers, in µM.

Items follow; give GI50 for each.
1. COc1ccc(/C=C2\Sc3nnc(C)n3N=C2c2cc(F)c(Cl)cc2Cl)cc1OC
2. COC(=O)c1ccc(NCC2=CC(=O)C=CC2=O)cc1O
3. NC(=O)NO [HYDROXYUREA]
4. COc1ccc(C(Nc2ncccn2)c2cc3c(cc2O)OCO3)cc1 (configuration not stated)
5. CC1OC(OC2C[C@](O)(C(=O)CF)Cc3c(O)c4c(c(O)c32)C(=O)c2ccccc2C4=O)CC(N)C1O (some centres not stated)
6. COC(=O)C1=Cc2c(cc(OC)c(OC)c2OC)[C@H](c2ccc(OC)c(OC)c2OC)C1C(=O)OC (some centres not stated)
7. CC(C)=C/C=C1/CS(=O)(=O)C=C1C
8. Cc1cc(Br)cc(C)c1NC(=O)C(=O)C1C(=O)C(CC2C(=O)c3ccccc3C2=O)C(=O)CC1(C)C (configuration not stated)

1: 6.93; 2: 16.5; 3: 871; 4: 18.8; 5: 0.0588; 6: 75; 7: 47.4; 8: 63.5

Items follow; give GI50 for each.
1. COc1ccc(OC)c2sc(N3C(=O)/C(=C/Cc4ccco4)N=C3c3ccccc3)nc12
2. CSC(=S)NNC(=O)c1ccncc1

1: 42.7; 2: 15

====

For each record, write down the corresponding GI50.
# Tested on: NCI-H460
# PROTOCOL_DESCRIPTION: NCI tumour cell line growth inhibition, 48 h
Active and inactive are the calls of the source. Rule as the data show it: active = GI50 up to about 1.1 µM and inactive = higher.

Completed entries (count: 5):
COc1ccc2c(c1)/C(=C\c1c(Cl)nc3n1CCS3)C(=O)N2 = 3.71 µM (inactive)
C=CCn1c(-c2ccccc2)cs/c1=N\C(P(=O)(O)O)P(=O)(O)O = > 100 µM (inactive)
O=C(CCC(=O)Nc1ccc(Cl)c(Cl)c1)CC(=O)c1ccc2ccccc2c1 = > 100 µM (inactive)
c1ccc2c(c1)N[C@@H]1c3[nH]c4ccccc4c3CC[C@H]21 = 16.8 µM (inactive)
O=C1NC2(CCCCC2)C(=O)N1CCN(CCCl)CCCl [SPIROMUSTINE] = 61.5 µM (inactive)

Items follow; give GI50 for each.
1. C=C1C=CC2(Br)OC3CC(C)(Cl)C(Br)CC13C2(C)C (centres undefined)
2. COC1/C=C/C(C)C(C(C)C(OC)C(C)CCC(=O)C(C)C(CCC(=O)O)OC)OC(=O)/C=C/C=C(\C)CC(OC)CC2=CC(=O)O[C@@H](C(C)C(OC)CC(OC)/C=C/C(C)C(OC)C1)[C@H]2O (some centres undefined)
3. COc1ccccc1NC(=O)CC(=O)N/N=C/c1ccc(N(CCC#N)S(=O)(=O)c2ccccc2)cc1
4. C/C(=N/NC(=S)Nc1ccccc1C)c1ccccn1

1: 22 µM (inactive); 2: 0.43 µM (active); 3: > 100 µM (inactive); 4: 0.0818 µM (active)
